We begin with a simple list: items and their reported pEC50.
Target: T1, human GITR (amino acids M1-V241, NCBI Accession #NP_004186.1) expressed on cells (human, UniProt Q9Y5U5 26-241)
T1 construct: also called hGITR; hGITR/HEK293-D9
T1 sequence: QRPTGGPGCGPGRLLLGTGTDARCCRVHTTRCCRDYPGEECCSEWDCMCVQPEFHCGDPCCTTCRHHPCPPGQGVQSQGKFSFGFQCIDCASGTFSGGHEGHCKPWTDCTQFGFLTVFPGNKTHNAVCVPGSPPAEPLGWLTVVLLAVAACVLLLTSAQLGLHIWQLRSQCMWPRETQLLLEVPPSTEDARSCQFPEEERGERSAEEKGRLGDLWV
Test: ECL cell binding, hGITR/HEK293-D9
pEC50: −log10 of the molar value.

# BINDER, pEC50
records = [
    ("H4H14470P (antibody, human IgG4, V domains shown, human IgG4 (H4H)) VH: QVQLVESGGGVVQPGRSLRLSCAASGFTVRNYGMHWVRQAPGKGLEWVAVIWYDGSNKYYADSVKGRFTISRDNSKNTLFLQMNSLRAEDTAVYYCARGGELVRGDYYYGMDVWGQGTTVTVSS VL: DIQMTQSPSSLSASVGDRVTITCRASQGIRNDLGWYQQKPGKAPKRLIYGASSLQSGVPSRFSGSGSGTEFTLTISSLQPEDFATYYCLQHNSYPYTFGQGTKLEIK", 8.85),
    ("H4H14521P (antibody, human IgG4, V domains shown, human IgG4 (H4H)) VH: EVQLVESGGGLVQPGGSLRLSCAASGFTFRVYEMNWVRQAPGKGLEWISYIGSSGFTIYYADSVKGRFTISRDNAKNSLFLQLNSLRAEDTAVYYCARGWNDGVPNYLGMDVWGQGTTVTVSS VL: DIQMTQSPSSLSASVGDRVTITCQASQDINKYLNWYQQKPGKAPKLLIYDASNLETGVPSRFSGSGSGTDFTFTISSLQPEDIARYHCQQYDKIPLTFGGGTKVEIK", 9.37),
    ("H1H14503P (antibody, human IgG1, V domains shown, human IgG1 (H1H)) VH: QVQLVESGGGVVQPGRSLRLSCEASGFTFSNYGFHWVRQAPGKGLDWVAVIWYAGSNKFYVDSVQGRFTISRDNSKQILFLQMNSLRAEDSAVYYCVRGGILGIDYYSGMDVWGQGTTVTVSS VL: AIQMTQSPSSLSASVGDRVTITCRASQDIRNDLGWYQQRPGKAPKFLIYSTSSLQSGVPSRFSGSGSGTDFILTISSLQPEDFATYYCLQSHNYPWTFGHGTKVEIK", 9.68),
    ("H1H14486P (antibody, human IgG1, V domains shown, human IgG1 (H1H)) VH: QVQLVESGGGVVQPGRSLRLSCAASGFTFSNYGMHWVRQAPGKGLEWVAVIWYPGSNKFYTDSVEGRFTISRDNSKNTVYLQMDSLRAEDTAVYYCARGGALGVDYYYGMDVWGQGTTVTVSS VL: AIQMTQSPSSLSASVGDRVTLTCRASQGIRNDLGWYQQKPGKAPNFLIYSASSLQSGVPSRFSGSGSGTDFTLTISSLQPEDFATYYCLQNYNYPWTFGQGTKVEIK", 9.37),
]
